Test system: E. coli BAS901 (permeabilized)
Type: cell-based
CONDITION LABEL: CLSI broth microdilution, Muller-Hinton broth, 5×10^5 CFU/mL, 24 hr at 37 C, OD600, performed in triplicate
Give MIC E. coli Δ for every item shown.
State just the number; it will be interpreted in µg/mL.

Value of MIC E. coli Δ reported for the molecule CCCCCCCCCCCCOC(=O)N[C@@H](CCN)C(=O)N(C)[C@H]1CC#CC#CCOC[C@@H](C(N)=O)NC(=O)[C@H](C)NC1=O is 16

Value of MIC E. coli Δ reported for the molecule CCCCCCCCCCCCCCCCOC(=O)N[C@@H](CCN)C(=O)N(C)[C@H]1COCC#CC#CC[C@H](C(N)=O)NC(=O)[C@H](C)NC1=O is 64

Value of MIC E. coli Δ reported for the molecule CCCCCCCCCCCCCCCCOC(=O)N[C@@H](CCN)C(=O)N(C)[C@H]1CC#CC#CCOC[C@@H](C(N)=O)NC(=O)[C@H](C)NC1=O is 16
